target.desc: human DGKζ (Homo sapiens, UniProt Q13574)
Construct: TVMV protease cleavage site (C); Hexa-His (C); made in house; host or cells: Sf9 insect cells (baculovirus, Bac-to-Bac)
Sequence (Q13574 with tags, fused parts or gaps isoform Q13574-4): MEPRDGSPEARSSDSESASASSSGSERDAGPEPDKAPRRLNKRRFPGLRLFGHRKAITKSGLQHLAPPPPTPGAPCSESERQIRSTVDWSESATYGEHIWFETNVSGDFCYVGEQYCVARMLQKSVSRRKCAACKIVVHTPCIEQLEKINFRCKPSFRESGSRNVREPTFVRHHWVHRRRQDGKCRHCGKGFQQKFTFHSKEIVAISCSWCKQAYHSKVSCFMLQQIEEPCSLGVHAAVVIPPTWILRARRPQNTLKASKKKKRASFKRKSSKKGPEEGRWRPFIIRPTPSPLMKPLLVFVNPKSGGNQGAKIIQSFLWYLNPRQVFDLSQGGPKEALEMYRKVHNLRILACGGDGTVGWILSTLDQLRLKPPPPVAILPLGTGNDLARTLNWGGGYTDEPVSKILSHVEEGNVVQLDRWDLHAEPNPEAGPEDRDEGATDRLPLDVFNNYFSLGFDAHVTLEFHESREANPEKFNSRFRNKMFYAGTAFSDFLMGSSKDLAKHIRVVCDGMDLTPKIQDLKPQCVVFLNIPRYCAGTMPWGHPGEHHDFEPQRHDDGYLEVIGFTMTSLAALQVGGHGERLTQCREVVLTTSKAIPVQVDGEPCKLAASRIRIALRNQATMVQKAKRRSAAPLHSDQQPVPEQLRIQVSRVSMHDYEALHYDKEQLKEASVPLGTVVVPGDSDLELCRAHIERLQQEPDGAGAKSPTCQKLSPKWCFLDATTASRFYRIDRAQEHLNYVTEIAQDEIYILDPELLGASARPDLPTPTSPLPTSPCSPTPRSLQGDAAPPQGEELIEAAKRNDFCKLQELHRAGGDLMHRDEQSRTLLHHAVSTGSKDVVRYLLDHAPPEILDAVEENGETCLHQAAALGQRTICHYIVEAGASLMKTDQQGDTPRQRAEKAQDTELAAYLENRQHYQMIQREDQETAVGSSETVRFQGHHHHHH
assay.notes: DGKζ LIPGLO assay (extruded liposome substrate), in vitro DGK inhibition
Type: biochemical
condition.info: liposome (LIPGLO) assay; read-out: DGKz LIPGLO IC50
Examples of molecules with documented log10 of IC50 follow.
Scale type: logarithmic (base 10). Underlying IC50 unit: nM.

molecule	log10 of IC50
CC[C@H]1CN(C(C)c2ccc(C(F)(F)F)cc2F)[C@H](CC)CN1c1cc(=O)n(C)c2ccc(C#N)nc12 (single isomer, unassigned) [Example 1365]	2.68
C[C@@H]1CN(c2cc(=O)n(C)c3ccc(C#N)nc23)[C@@H](C)CN1C(CO)c1ccc(C(F)(F)F)cn1 (stereo partly drawn) [Example 1279]	3.15
C[C@@H]1CN(c2cc(=O)n(C)c3ccc(C#N)nc23)[C@@H](C)CN1CCc1ccccc1 [Example 632]	4.04

Quickly give me recorded log10 of IC50 for C[C@@H]1CN(c2cc(=O)n(C)c3ccc(C#N)nc23)[C@@H](C)CN1C(c1ccc(F)cc1)c1cn(C)cn1 (stereo partly drawn) [Example 708]
4.57

Check the records and state log10 of IC50 for C[C@@H]1CN(c2cc(=O)n(C)c3ccc(C#N)nc23)[C@@H](C)CN1C(c1ccc(F)cc1)C(C)(C)O (single isomer, unassigned) [Example 1309]
4.11

// Input: CC(=O)N1CC(c2noc(C(c3ccc(F)cc3)N3C[C@H](C)N(c4cc(=O)n(C)c5ccc(C#N)nc45)C[C@H]3C)n2)C1 (single isomer, unassigned) [Example 1296] . Output its log10 of IC50 only.
3.70

Give log10 of IC50 for C[C@H]1CN(C(c2ccc(F)cc2)c2ccc(F)cc2)CCN1c1cc(=O)n(C)c2ccc(C#N)nc12 [Example 134]
3.69

Identify log10 of IC50 associated with the molecule CC(C)Oc1ncccc1C(c1ccc(F)cc1)N1C[C@H](C)N(c2cc(=O)n(C)c3ccc(C#N)nc23)C[C@H]1C (single isomer, unassigned) [Example 208]
2.83

Specify reported log10 of IC50 for the molecule shown: COc1cc(F)ccc1C(c1ccc(F)cc1)N1CCN(c2cc(=O)n(C)c3ccc(C#N)nc23)[C@@H](C)C1 (single isomer, unassigned) [Example 129]
2.91

Consider the molecule CC[C@@H]1CN(c2cc(=O)n(C)c3ccc(C#N)nc23)[C@@H](CC)CN1Cc1cc(F)c(F)c(F)c1 [Example 1354] . State its measured log10 of IC50.
2.92

Give recorded log10 of IC50. C[C@@H]1CN(c2cc(=O)n(C)c3ccc(C#N)nc23)[C@@H](C)CN1C(c1cccc(F)c1)c1ccc(C(F)(F)F)cn1 (single isomer, unassigned) [Example 371]
3.32

For CC[C@H]1CN(C(c2ccc(F)cc2)c2ccc(C(F)(F)F)cn2)[C@H](CC)CN1c1cc(=O)n(C)c2ccc(C#N)nc12 (stereo partly drawn) [Example 1040] , write its log10 of IC50.
1.77

Give the measured log10 of IC50 for C[C@@H]1CN(c2cc(=O)n(C)c3ccc(C#N)nc23)[C@@H](C)CN1C(c1ccc(Cl)cc1)c1ncccc1F (single isomer, unassigned) [Example 189]
2.74

Provide log10 of IC50 value for the following molecule: CC(c1ccc(C#N)cc1F)N1C[C@H](C)N(c2cc(=O)n(C)c3ccc(C#N)nc23)C[C@H]1C (single isomer, unassigned) [Example 1226]
3.23

Answer with the recorded log10 of IC50 for the molecule listed here: C[C@@H]1CN(c2cc(=O)n(C)c3ccc(C#N)nc23)[C@@H](C)CN1C(c1ccc(F)cc1)c1cccnn1 (single isomer, unassigned) [Example 384]
3.84

Retrieve log10 of IC50 measured for CC(=O)NC[C@@H]1CN(c2cc(=O)n(C)c3ccc(C#N)nc23)[C@@H](C)CN1C(c1ccc(F)cc1)c1ccc(F)cc1 [Example 1165] and print it.
3.04

###

target.desc: human DGKζ (Homo sapiens)
Construct: TVMV protease cleavage site (C); Hexa-His (C); made in house; host or cells: Sf9 insect cells (baculovirus, Bac-to-Bac)
assay.notes: DGKζ LIPGLO assay (extruded liposome substrate), in vitro DGK inhibition
Type: biochemical
condition.info: liposome (LIPGLO) assay; read-out: DGKz LIPGLO IC50
Could you mark each record true if its IC50 falls strictly under 2000 nM, and false if it equals or exceeds it?

A selection of reference data follows.
compound	group.label
CCC(c1ccc(OC(C)C)cc1)N1C[C@H](C)N(c2cc(=O)n(C)c3ccc(C#N)nc23)C[C@H]1CC (single isomer, unassigned) [Example 1448]	true
CC[C@H]1CN(C(c2ccc(F)cc2)c2cocn2)[C@H](CC)CN1c1cc(=O)n(C)c2ccc(C#N)nc12 (single isomer, unassigned) [Example 1069]	true
C[C@@H]1CN(c2cc(=O)n(C)c3ccc(C#N)nc23)[C@@H](C)CN1C(c1ccc(F)cc1)C(C)(C)O (single isomer, unassigned) [Example 1308]	false
CC(c1ccc(OC(F)(F)F)cc1)N1C[C@H](C)N(c2cc(=O)n(C)c3ccc(C#N)nc23)C[C@H]1CN1CCOCC1 (single isomer, unassigned) [Example 1415]	true

With those in mind, consider the next compound.
Threshold test, IC50 < 2000 nM: C[C@@H]1CN(c2cc(=O)n(C)c3ccc(C#N)nc23)[C@@H](C)CN1C(c1ccc(F)cc1)c1ncccc1F (single isomer, unassigned) [Example 187]
true

###

pIC50 values, listed per item
target.desc: human DGKα (Homo sapiens)
Construct: TVMV protease cleavage site (C); Hexa-His (C); made in house; host or cells: Sf9 insect cells (baculovirus, Bac-to-Bac)
Sequence (P23743 with tags, fused parts or gaps): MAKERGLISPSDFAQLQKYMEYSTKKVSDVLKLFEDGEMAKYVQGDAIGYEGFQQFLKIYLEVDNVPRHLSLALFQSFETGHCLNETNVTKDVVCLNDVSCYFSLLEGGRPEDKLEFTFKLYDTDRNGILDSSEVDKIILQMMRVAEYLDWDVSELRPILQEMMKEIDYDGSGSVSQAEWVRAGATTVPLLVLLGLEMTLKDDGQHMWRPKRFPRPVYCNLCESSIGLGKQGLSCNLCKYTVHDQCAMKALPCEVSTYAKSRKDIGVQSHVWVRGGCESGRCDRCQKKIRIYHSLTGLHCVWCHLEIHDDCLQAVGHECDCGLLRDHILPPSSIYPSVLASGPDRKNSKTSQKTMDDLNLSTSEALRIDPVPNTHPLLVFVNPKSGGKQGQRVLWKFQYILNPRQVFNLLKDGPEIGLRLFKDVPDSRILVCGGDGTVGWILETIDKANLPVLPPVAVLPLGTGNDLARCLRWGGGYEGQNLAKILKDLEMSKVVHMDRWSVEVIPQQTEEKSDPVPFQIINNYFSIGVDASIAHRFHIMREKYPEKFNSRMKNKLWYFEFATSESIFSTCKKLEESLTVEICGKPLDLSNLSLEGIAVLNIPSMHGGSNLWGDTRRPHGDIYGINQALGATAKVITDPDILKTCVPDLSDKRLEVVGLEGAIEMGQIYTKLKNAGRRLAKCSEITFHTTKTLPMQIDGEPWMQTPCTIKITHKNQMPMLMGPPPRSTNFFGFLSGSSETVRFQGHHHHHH
assay.notes: DGKα LIPGLO assay (extruded liposome substrate), in vitro DGK inhibition
Assay type: biochemical
condition.info: liposome (LIPGLO) assay; read-out: DGKa LIPGLO IC50
pIC50 is a log-scale quantity: -log10 of the concentration expressed in molar.

compound	target.desc	pIC50
C[C@@H]1CN(c2cc(=O)n(C)c3ccc(C#N)nc23)[C@@H](C)CN1C(c1ccc(F)cc1)c1csc(C(F)(F)F)n1 (single isomer, unassigned) [Example 1334]	human DGKα (Homo sapiens)	6.96
CC[C@H]1CN(C(C)c2cc(F)cc(OC(F)(F)F)c2)[C@H](C)CN1c1cc(=O)n(C)c2ccc(C#N)nc12 (stereo partly drawn) [Example 1385]	human DGKα (Homo sapiens)	5.23
Cn1c(=O)cc(N2CC(C3CC3)N(C(c3ccc(F)cc3)c3ccc(F)cc3)CC2C2CC2)c2nc(C#N)ccc21 (single isomer, unassigned) [Example 153]	human DGKα (Homo sapiens)	3.62
Cc1noc(C)c1CN1C[C@H](C)N(c2cc(=O)n(C)c3ccc(C#N)nc23)C[C@H]1C [Example 1426]	human DGKα (Homo sapiens)	4.48
COC(=O)C1CN(C(c2ccc(F)cc2)c2ccc(F)cc2)CCN1c1cc(=O)n(C)c2ccc(C#N)nc12 (single isomer, unassigned) [Example 137]	human DGKα (Homo sapiens)	3.62
C[C@@H]1CN(c2cc(=O)n(C)c3ccc(C#N)nc23)[C@@H](C)CN1C(c1ccc(F)cc1)c1ccon1 (single isomer, unassigned) [Example 707]	human DGKα (Homo sapiens)	6.82

With those in mind, consider the next compound.
Query pIC50 for COC(=O)C1CN(c2cc(=O)n(C)c3ccc(C#N)nc23)CCN1C(c1ccc(F)cc1)c1ccc(F)cc1OC (single isomer, unassigned) [Example 71]
3.62

###

target.desc: human DGKζ (Homo sapiens, UniProt Q13574)
Construct: TVMV protease cleavage site (C); Hexa-His (C); made in house; host or cells: Sf9 insect cells (baculovirus, Bac-to-Bac)
assay.notes: DGKζ LIPGLO assay (extruded liposome substrate), in vitro DGK inhibition
Format: biochemical
condition.info: liposome (LIPGLO) assay; read-out: DGKz LIPGLO IC50
value.type: IC50 (nM)
# output: bare number, implied unit nM

Example cases with answers are listed next.
molecule	uom	observed.result
CC(c1ccc(F)c(Cl)c1)N1C[C@H](C)N(c2cc(=O)n(C)c3ccc(C#N)nc23)C[C@H]1C (single isomer, unassigned) [Example 1257]	nM	1100
CC[C@H]1CN(C(c2ccc(F)cc2)c2csc(C(F)(F)F)n2)[C@H](CC)CN1c1cc(=O)n(C)c2ccc(C#N)nc12 (single isomer, unassigned) [Example 1362]	nM	50
CC[C@H]1CN(C(C)c2ccc3c(c2)OC(F)(F)O3)[C@H](CC)CN1c1cc(=O)n(C)c2ccc(C#N)nc12 (single isomer, unassigned) [Example 1368]	nM	34
CCC(c1ccc(OC(F)(F)F)cc1F)N1C[C@H](CC)N(c2cc(=O)n(C)c3ccc(C#N)nc23)C[C@H]1C (single isomer, unassigned) [Example 1377]	nM	270

Query IC50 for Cc1nccc(C(c2ccc(F)cc2)N2CCN(c3c(C#N)c(=O)n(C)c4ccc(C#N)nc34)C[C@H]2C)n1 (stereo partly drawn) [Example 315]
1800

Supply measured IC50 of C[C@@H]1CN(c2c(F)c(=O)n(C)c3ccc(C#N)nc23)[C@@H](C)CN1C(c1ccc(F)cc1)c1c(F)cccc1F (single isomer, unassigned) [Example 329] in your reply.
4500
